Every entry's value here was drawn from the supplement of paper PMC10567573.

Documented protein stability index across a set of variants
B1: TRIM15 (parent)
chain: LLARLRELEQQIWKERDEYITKVS

variants of: B1; test: protein stability index of a GFP-peptide fusion (GPS, HEK-293T) (PSI 1-6); higher = more stable; conditions: c terminus: a fixed tail appended;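 note: lentivirally expressed fusions sorted by FACS into six bins by GFP to DsRed ratio, PSI derived from sequencing read proportions per bin multiplied by bin number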

{"Mutation List": "I20Q", "protein stability index": 2.09}
{"Mutation List": "I12M", "protein stability index": 3.6}
{"Mutation List": "L2G", "protein stability index": 1.9}
{"Mutation List": "R6C", "protein stability index": 1.8}
{"Mutation List": "L2C", "protein stability index": 1.6}
{"Mutation List": "I20R", "protein stability index": 2.91}
{"Mutation List": "A3C", "protein stability index": 2.64}
{"Mutation List": "L5I", "protein stability index": 2.98}
{"Mutation List": "I20N", "protein stability index": 1.63}
{"Mutation List": "S24A", "protein stability index": 1.63}
{"Mutation List": "T21W", "protein stability index": 2.63}
{"Mutation List": "L5P", "protein stability index": 2.65}
{"Mutation List": "Y19L", "protein stability index": 1.98}
{"Mutation List": "I12N", "protein stability index": 1.24}
{"Mutation List": "R16K", "protein stability index": 1.92}
{"Mutation List": "W13K", "protein stability index": 2.24}
{"Mutation List": "S24Y", "protein stability index": 2.94}
{"Mutation List": "L1F", "protein stability index": 1.55}
{"Mutation List": "A3V", "protein stability index": 2.49}
{"Mutation List": "R6V", "protein stability index": 3.95}
{"Mutation List": "E9K", "protein stability index": 1.62}
{"Mutation List": "R16A", "protein stability index": 1.78}
{"Mutation List": "E7C", "protein stability index": 2.53}
{"Mutation List": "L2Q", "protein stability index": 1.22}
{"Mutation List": "L8A", "protein stability index": 1.14}
{"Mutation List": "V23L", "protein stability index": 2}
{"Mutation List": "D17T", "protein stability index": 2.08}
{"Mutation List": "E7R", "protein stability index": 1.07}
{"Mutation List": "K14N", "protein stability index": 1}
{"Mutation List": "L8T", "protein stability index": 2.74}
{"Mutation List": "I20Y", "protein stability index": 3.1}
{"Mutation List": "R4Q", "protein stability index": 1.74}
{"Mutation List": "I20F", "protein stability index": 3.15}
{"Mutation List": "Q10S", "protein stability index": 1.18}
{"Mutation List": "L5T", "protein stability index": 2.44}
{"Mutation List": "L1A", "protein stability index": 1.79}
{"Mutation List": "L5E", "protein stability index": 2.96}
{"Mutation List": "R16E", "protein stability index": 2}
{"Mutation List": "I12F", "protein stability index": 2.15}
{"Mutation List": "L8R", "protein stability index": 1.44}
{"Mutation List": "L2T", "protein stability index": 2.56}
{"Mutation List": "L8G", "protein stability index": 2.9}
{"Mutation List": "E7N", "protein stability index": 1.84}
{"Mutation List": "L1S", "protein stability index": 2.12}
{"Mutation List": "T21Y", "protein stability index": 2.02}
{"Mutation List": "R6P", "protein stability index": 2.44}
